SYSTEM_UNDER_TEST: Fuc(a1-2)[Gal(a1-3)]Gal(b1-4)GlcNAc(b1-2)Man(a1-3)[Fuc(a1-2)[Gal(a1-3)]Gal(b1-4)GlcNAc(b1-2)Man(a1-6)]Man(b1-4)GlcNAc(b1-4)[Fuc(a1-6)]GlcNAc
RUN_DESCRIPTION: glycan array binding signal (z-score within array); higher = stronger binding
EXPERIMENTAL_CONTEXT: glycan notation: IUPAC condensed, linker removed
This excerpt belongs to a sample that is enriched for the strongest signals.
Reported glycan array binding signal (z-score) values for a set of binders
Number, no unit, nothing else.

NKR-PIC (Mus musculus) (protein) GTGQKPSREKCCVFIQENLNKTTDCSVNLECPQDWLLHRDKCFHVSQVSNTWEEGQADCGRKGATLLLIQDQEELRFLLDSIKEKYNSFWIGLRFTLPDMNWKWINGTTFNSDVLKITGVTENGSCASILGDKVTPESCASDNRWICQKELNHETPSNDSGT; -0.335
Gal 7 (Canis lupus) (protein) MAGSSNVPHKTSLPEGIRVGTVMRIRGVVPNKAGRFYVNLLCGEAPGSEAALHFNPRLDESTVVFNTLEQGAWGREERGTGIPFQRGQPFDVLLIATDEGFKAVVGDSEYHHFRYRIPPARVRLLEVGGDLQLESVSVF; 1.25

// lookup glycan array binding signal (z-score) for Jacalin (Artocarpus integrifolia) (protein) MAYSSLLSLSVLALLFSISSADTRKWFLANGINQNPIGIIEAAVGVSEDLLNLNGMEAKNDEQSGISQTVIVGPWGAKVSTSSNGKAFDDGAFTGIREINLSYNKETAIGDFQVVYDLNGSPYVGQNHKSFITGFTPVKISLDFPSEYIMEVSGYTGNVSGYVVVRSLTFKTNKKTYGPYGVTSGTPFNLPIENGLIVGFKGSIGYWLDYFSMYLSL
-0.211

Just for reference, the supplement of paper PMC8728848 is where these values come from.
